These data points were gathered from patent US8263642B2.

test system: hrtAB-driven expression of the xylE reporter gene; test: XylE reporter assay (hrtAB promoter-xylE), Newman; assay type: cell-based, Staphylococcus aureus; conditions: level of XylE induction at 0.5 uM of the compound

[
  {
    "molecule": "COC(=O)C1=C(C)NC(=O)NC1c1cn(-c2ccccc2)nc1-c1ccc(OC)c(OC)c1 (stereo not shown)",
    "XylE (0.5)": 0.04
  },
  {
    "molecule": "Cc1ccc2c(c1)C(c1ccccc1)=NNC(c1ccccc1)=N2",
    "XylE (0.5)": 0
  },
  {
    "molecule": "O=C1C2=C(Nc3nn(-c4ccccc4)c(O)c3C2c2ccc([N+](=O)[O-])cc2)c2ccccc21 (stereo not shown)",
    "XylE (0.5)": 1
  },
  {
    "molecule": "COC(NC(=O)Nc1nc2ccccc2s1)(C(F)(F)F)C(F)(F)F",
    "XylE (0.5)": 4
  }
]

###

test system: hrtAB-driven expression of the xylE reporter gene; assay: XylE reporter assay (hrtAB promoter-xylE), Newman; assay type: cell-based, Staphylococcus aureus; details: level of XylE induction at 50.0 uM of the compound
For each record, check the reported XylE (50.0): if it is below 0.03 write True, else write False.

[
  {
    "chemical structure": "Oc1ccc(Nc2nc(-c3ccc(Cl)cc3)nc3ccccc23)cc1",
    "assay system": "hrtAB-driven expression of the xylE reporter gene",
    "category": "False"
  },
  {
    "chemical structure": "O=C(Nc1ccc(/N=N/c2ccccc2)cc1)c1cccnc1",
    "assay system": "hrtAB-driven expression of the xylE reporter gene",
    "category": "False"
  },
  {
    "chemical structure": "CCc1ccc2oc(-c3ccc(NC(=O)c4ccccc4OC)cc3)nc2c1",
    "assay system": "hrtAB-driven expression of the xylE reporter gene",
    "category": "False"
  },
  {
    "chemical structure": "O=C(Nc1ccc(NC(=O)c2cccs2)c(Cl)c1)c1cccs1",
    "assay system": "hrtAB-driven expression of the xylE reporter gene",
    "category": "False"
  },
  {
    "chemical structure": "Brc1ccc(CN2CCN(c3ccccc3)CC2)o1",
    "assay system": "hrtAB-driven expression of the xylE reporter gene",
    "category": "True"
  },
  {
    "chemical structure": "Cc1ccc2c(c1)C(c1ccccc1)=NNC(c1ccccc1)=N2",
    "assay system": "hrtAB-driven expression of the xylE reporter gene",
    "category": "False"
  },
  {
    "chemical structure": "Brc1ccc(-c2nc(NCc3ccccc3)c3ccccc3n2)cc1",
    "assay system": "hrtAB-driven expression of the xylE reporter gene",
    "category": "False"
  },
  {
    "chemical structure": "Cc1cccc(NC(=S)N/N=C/c2cc(Br)ccc2O)c1",
    "assay system": "hrtAB-driven expression of the xylE reporter gene",
    "category": "True"
  },
  {
    "chemical structure": "O=c1c2ccccc2nc(/C=C\\c2ccccc2Cl)n1-c1ccccc1O",
    "assay system": "hrtAB-driven expression of the xylE reporter gene",
    "category": "False"
  },
  {
    "chemical structure": "COc1ccc(/N=c2\\nc(-c3ccccc3)n(-c3ccc(C)cc3)s2)cc1",
    "assay system": "hrtAB-driven expression of the xylE reporter gene",
    "category": "True"
  }
]
